system: NCI-H2228; experiment: relative viability (nuclei count vs DMSO), 5 days (fraction); higher = more cells survive; conditions: first compound 0.4 µM
endpoint name: relative viability

{"molecule": "C[C@@H]1CN(CC(=O)Nc2ccc3c(c2)Cc2cccc(-c4cc(=O)cc(N5CCOCC5)o4)c2S3)C[C@H](C)O1 + CC1(C)CCC(c2ccc(Cl)cc2)=C(CN2CCN(c3ccc(C(=O)NS(=O)(=O)c4ccc(N[C@H](CCN5CCOCC5)CSc5ccccc5)c(S(=O)(=O)C(F)(F)F)c4)cc3)CC2)C1 [Navitoclax] (partner 0.5 µM)", "experimental value": 0.639}
{"molecule": "COc1cc(N2CCC(C(N)=O)CC2)ccc1Nc1nc(N)c(Cl)c(Nc2ccccc2S(=O)(=O)C(C)C)n1 [HG-5-88-01] + C[C@@H](Oc1cc(-c2cnn(C3CCNCC3)c2)cnc1N)c1c(Cl)ccc(F)c1Cl [Crizotinib] (partner 1 µM)", "experimental value": 0.454}
{"molecule": "Clc1ccc(Nc2nnc(Cc3ccncc3)c3ccccc23)cc1 [Vatalanib] + CC(=O)Nc1cccc(-n2c(=O)n(C3CC3)c(=O)c3c(Nc4ccc(I)cc4F)n(C)c(=O)c(C)c32)c1 [Trametinib] (partner 0.02 µM)", "experimental value": 0.666}
{"molecule": "COc1cc(N2CCC(C(N)=O)CC2)ccc1Nc1nc(N)c(Cl)c(Nc2ccccc2S(=O)(=O)C(C)C)n1 [HG-5-88-01] + CS(=O)(=O)CCNCc1ccc(-c2ccc3ncnc(Nc4ccc(OCc5cccc(F)c5)c(Cl)c4)c3c2)o1 [Lapatinib] (partner 2 µM)", "experimental value": 0.394}
